Please provide measured growth for the entries that follow.
Tested on: HS 578T breast
Assay: NCI-60 one-dose screen, 48 h (100 = growth as untreated, 0 = no growth, -100 = all killed)
Conditions: 10 µM unless noted
Compounds without any hit were thinned out: in the full panel of roughly 83,000, 20% have a hit.
Give a bare numeral; the unit % is implied.

Problem: Reported growth, compound O=C1CN(CCN2CC(=O)N(Cc3ccccc3)C(=O)C2)CC(=O)N1Cc1ccccc1 : ____
Solution: 96.7

Problem: Return reported growth; argument: CN1CCN(c2ccc(-c3cc4c(Nc5ccc(F)c(Cl)c5)ncnn4c3)cc2)CC1
Solution: 75.2

Problem: Which growth value belongs to CCOC(=O)/C(C#N)=C\Nc1ccc2ncnc(Nc3ccc(Cl)cc3Cl)c2c1 ?
Solution: 75.5

Problem: May I ask what growth has been recorded for NC(=O)C1(Nc2ccc(Br)cc2)CCCC1 ?
Solution: 111

Problem: Name the recorded growth for O=C(Oc1cccc2ccccc12)Oc1cccc2ccccc12 .
Solution: 106

Problem: State the recorded growth for this entry: NC1=NC(c2cccc(Br)c2)c2sc3ccc(Cl)cc3c2N1 (stereo unspecified)
Solution: 104

Origin of values: PubChem BioAssay (NCI)
